Source listed as ChEMBL document CHEMBL3351296.

- experiment.notes: In vitro photoprotection of the compound assessed as sun protection factor by Optometric 290S analyzer
Below, each of the molecules is paired with its reported SPF value.
# output: bare number, no unit

Look over these answered cases.
molecule=COc1ccc(/C=C/C=N/NC(=O)c2ccc(O)cc2)cc1 assay_value=2
molecule=COc1cc(/C=C/C=N/NC(=O)c2ccc(C(C)(C)C)cc2)ccc1O assay_value=2

Consider now this further molecule.
Q: Requested read-out: SPF. Entry: COc1ccc(/C=C/C=N/NC(=O)c2ccc(C(C)(C)C)cc2)cc1
Result: 4

----------
- experiment.notes: In vitro photoprotection of the compound assessed as UVA protection factor by Optometric 290S analyzer
quantity: UVAPF

compound=COc1ccc(/C=C/C=N/NC(=O)c2ccc(C(C)(C)C)cc2)cc1 assay_value=4

Q: Quick check: UVAPF of O=C(N/N=C/c1cc(O)cc(O)c1)c1ccc(O)cc1 ?
Result: 4

Q: Can you share its UVAPF? I mean this compound: COc1ccc(/C=C/C=N/NC(=O)c2ccc(O)cc2)cc1
Result: 2

Q: Query (compound): O=C(N/N=C/c1ccc(O)cc1)c1ccc(O)cc1 ; field requested: UVAPF
Result: 2

----------
- experiment.notes: Antioxidant activity of the compound assessed as reduction in absorbance of DPPH after 60 mins incubation at 35 uM by DPPH radical scavenging /microplate assay
- Format: physicochemical
- experimental.parameters: 1 h
Recorded inhibition (INH), one value per entry.
Note: unit % is implicit; provide only the numeric part.

Some entries whose results are on file:
compound_smiles=CC(C)(C)c1ccc(C(=O)N/N=C/c2cc(O)cc(O)c2)cc1 assay_value=7
compound_smiles=COc1ccc(/C=C/C=N/NC(=O)c2ccc(O)cc2)cc1 assay_value=-3.4
compound_smiles=CC(C)(C)c1ccc(C(=O)N/N=C/c2ccc(O)cc2)cc1 assay_value=10.2
compound_smiles=O=C(N/N=C/c1ccc(O)cc1)c1ccc(O)cc1 assay_value=18.4
compound_smiles=O=C1O[C@H]([C@@H](O)CO)C(O)=C1O assay_value=18.8

Q: Give its inhibition (INH) value. Item: COc1cc(/C=C/C=N/NC(=O)c2ccc(O)cc2)ccc1O
Result: 34.8

Q: Form field: reported inhibition (INH) of Oc1ccc(/C=C/c2cc(O)cc(O)c2)cc1
Result: 20.5

Q: Any idea what inhibition (INH) was measured for COc1cc(/C=C/C=N/NC(=O)c2ccc(C(C)(C)C)cc2)ccc1O ?
Result: 20

Q: Could you share which inhibition (INH) value was measured for O=C(N/N=C/c1cc(O)cc(O)c1)c1ccc(O)cc1 ?
Result: 5.6

Q: For the compound COc1ccc(/C=C/C=N/NC(=O)c2ccc(C(C)(C)C)cc2)cc1 , what inhibition (INH) is on record?
Result: -6.6

----------
Parameter: inhibition (INH). Scope: all listed entries.
- experiment.notes: Antioxidant activity of the compound assessed as reduction in absorbance of DPPH after 60 mins incubation at 300 uM by DPPH radical scavenging /microplate assay
- Format: physicochemical
- experimental.parameters: 1 h
Record the result as a number with its unit.

Example entries and their recorded answers appear below.
compound_smiles=CC(C)(C)c1ccc(C(=O)N/N=C/c2ccc(O)cc2)cc1 assay_value=28.9%
compound_smiles=COc1ccc(/C=C/C=N/NC(=O)c2ccc(C(C)(C)C)cc2)cc1 assay_value=-5.6%
compound_smiles=O=C(N/N=C/c1ccc(O)cc1)c1ccc(O)cc1 assay_value=54.4%
compound_smiles=COc1cc(/C=C/C=N/NC(=O)c2ccc(C(C)(C)C)cc2)ccc1O assay_value=75.1%
compound_smiles=O=C1O[C@H]([C@@H](O)CO)C(O)=C1O assay_value=80.7%

Attention now shifts to the item below.
Q: # lookup: inhibition (INH) of COc1cc(/C=C/C=N/NC(=O)c2ccc(O)cc2)ccc1O
Result: 77.2%

----------
- experiment.notes: Antioxidant activity of the compound assessed as reduction in absorbance of DPPH after 60 mins incubation at 1000 uM by DPPH radical scavenging /microplate assay
- Format: physicochemical
- experimental.parameters: 1 h
Attribute: inhibition (INH)
# output: bare number, implied unit %

Observe how each entry below is paired with its result.
compound_smiles=Oc1ccc(/C=C/c2cc(O)cc(O)c2)cc1 quantity="inhibition (INH)" assay_value=73.8
compound_smiles=CC(C)(C)c1ccc(C(=O)N/N=C/c2ccc(O)cc2)cc1 quantity="inhibition (INH)" assay_value=38.7
compound_smiles=COc1cc(/C=C/C=N/NC(=O)c2ccc(C(C)(C)C)cc2)ccc1O quantity="inhibition (INH)" assay_value=76.1
compound_smiles=O=C(N/N=C/c1cc(O)cc(O)c1)c1ccc(O)cc1 quantity="inhibition (INH)" assay_value=34.2
compound_smiles=O=C1O[C@H]([C@@H](O)CO)C(O)=C1O quantity="inhibition (INH)" assay_value=81.2
compound_smiles=CC(C)(C)c1ccc(C(=O)N/N=C/c2cc(O)cc(O)c2)cc1 quantity="inhibition (INH)" assay_value=31.3

// moving on: another record for inhibition (INH)
Q: Value lookup for inhibition (INH); key = COc1ccc(/C=C/C=N/NC(=O)c2ccc(C(C)(C)C)cc2)cc1
Result: -7.1

----------
- experiment.notes: In vitro photoprotection of the compound assessed as sun protection factor by Optometric 290S analyzer
quantity: SPF
I'd appreciate a reply containing only the number, no unit.

Q: Consider the compound shown here: CC(C)(C)c1ccc(C(=O)N/N=C/c2ccc(O)cc2)cc1 What is its recorded SPF?
Result: 2

Q: Find the recorded SPF belonging to CCCCC(CC)COC(=O)C=Cc1ccc(OC)cc1 (stereo not drawn) and report it.
Result: 13

Q: Could you tell me which SPF is on file for COc1cc(/C=C/C=N/NC(=O)c2ccc(O)cc2)ccc1O ?
Result: 2

Q: What does the record list as SPF for Oc1ccc(/C=C/c2cc(O)cc(O)c2)cc1 ?
Result: 2

Q: Name the reported SPF value associated with the compound O=C(N/N=C/c1ccc(O)cc1)c1ccc(O)cc1
Result: 3

Q: For the compound CC(C)(C)c1ccc(C(=O)N/N=C/c2cc(O)cc(O)c2)cc1 , what SPF is on record?
Result: 4

Q: Reported SPF, compound O=C(N/N=C/c1cc(O)cc(O)c1)c1ccc(O)cc1 : ____
Result: 5

Q: Query (compound): COc1ccc(C(=O)c2ccccc2)c(O)c1 ; field requested: SPF
Result: 1

----------
Known UVAPF of a selection of molecules
- experiment.notes: In vitro photoprotection of the compound assessed as UVA protection factor by Optometric 290S analyzer
Keep the answer to the number alone.

Q: If you can, please state the reported UVAPF value of CC(C)(C)c1ccc(C(=O)N/N=C/c2cc(O)cc(O)c2)cc1 .
Result: 3

Q: Report UVAPF for COc1cc(/C=C/C=N/NC(=O)c2ccc(C(C)(C)C)cc2)ccc1O please.
Result: 2

Q: Using the record for COc1cc(/C=C/C=N/NC(=O)c2ccc(O)cc2)ccc1O , report its UVAPF.
Result: 2

Q: Data request, read-out UVAPF, for COc1ccc(C(=O)CC(=O)c2ccc(C(C)(C)C)cc2)cc1
Result: 39

Q: Field request: UVAPF | item: CC(C)(C)c1ccc(C(=O)N/N=C/c2ccc(O)cc2)cc1
Result: 2

Q: Reported UVAPF, molecule Oc1ccc(/C=C/c2cc(O)cc(O)c2)cc1 [RESVERATROL] : ____
Result: 2
